Origin of values: patent US20180250395A1

TESTED_ON: T1, human CD47 on Jurkat cells (human, UniProt Q08722 19-323)
T1 construct: Endogenous CD47 of the cell lines; also called CD47-expressing Jurkat cells; CD47 on HL60 cells
METHOD: MSD on Jurkat cells; blocks SIRP alpha-Fc binding
Overview of reported EC50 across a group of binders:
Write the value in µg/mL as a bare number.

C47B116 (antibody, human IgG2, V domains shown, hybridoma-derived, chimeric human IgG2 Fc-silent/human kappa; also called parent hybridoma mAb C47B116) VH: EVQLQQSGPELVKPGASVKISCKASGYTFTDYNMHWVKQSHGKSLEWIGDIYPYNGGTGYNQKFKSKATLTVDNSSSTAYMELRSLTSEDSAVYYCARGGWHAMDSWGQGTSVTVSS VL: DVVMTQTPLSLPVSLGDQASISCRSRQSIVHTNRYTYLAWYLQKPGQSPKLLIYKVSNRFSGVPDRFSGSGSGTDFTLKISRVEAEDLGVYYCFQGSHVPYTFGGGTKLEIK :: 0.12
C47B152 (antibody, V domains shown, HFA variant of C47B116; human IgG2sigma/kappa) VH: QVQLVQSGAEVKKPGSSVKVSCKASGYTFTDYNMHWVRQAPGQGLEWMGDIYPYNGGTGYNQKFKGRVTITADESTSTAYMELSSLRSEDTAVYYCARGGWHAMDSWGQGTLVTVSS VL: EIVLTQSPATLSLSPGERATLSCRSRQSIVHTNRYTYLAWYQQKPGQAPRLLIYKVSNRFSGIPARFSGSGSGTDFTLTISSLEPEDFAVYYCFQGSHVPYTFGGGTKLEIK :: 0.26

For record C47B148 (antibody, V domains shown, HFA variant of C47B116; human IgG2sigma/kappa) VH: EVQLVQSGAEVKKPGESLKISCKGSGYTFTDYNMHWVRQMPGKGLEWMGDIYPYNGGTGYNQKFKGQVTISADKSISTAYLQWSSLKASDTAMYYCARGGWHAMDSWGQGTLVTVSS VL: EIVLTQSPATLSLSPGERATLSCRSRQSIVHTNRYTYLAWYQQKPGQAPRLLIYKVSNRFSGIPARFSGSGSGTDFTLTISSLEPEDFAVYYCFQGSHVPYTFGGGTKLEIK the listed EC50 is 0.09
